Each item that follows carries a reported Pyuria: number of events.
method.notes: Safety and tolerability: treatment-emergent adverse events by intervention
Assay type: in vivo, human
test.context: TEAE; intervention arm = label; P-CAB arms co-administered with atorvastatin 40 mg, 7 days
metric: Pyuria: number of events

                                   molecule                    metric  value_reported
0  CNCc1cc(-c2ccccc2F)n(S(=O)(=O)c2cccnc2)c1  Pyuria: number of events               2
1  CC(C)c1c(C(=O)Nc2ccccc2)c(-c2ccccc2)c(-c2ccc(F)cc2)n1CC[C@@H](O)C[C@@H](O)CC(=O)O [Reference 2, atorvastatin]  Pyuria: number of events               1
2  CC(C)c1c(C(=O)Nc2ccccc2)c(-c2ccccc2)c(-c2ccc(F)cc2)n1CC[C@@H](O)C[C@@H](O)CC(=O)O [Reference 1, atorvastatin]  Pyuria: number of events               1
3  Cc1nc2cc(C(=O)N(C)C)cc(O[C@H]3CCOc4cc(F)cc(F)c43)c2[nH]1  Pyuria: number of events               1

====

method.notes: clinical
test.context: human, in vivo, 40 mg, AUCτ
metric: AUC

                            compound_smiles  value_reported
0  CC(C)c1c(C(=O)Nc2ccccc2)c(-c2ccccc2)c(-c2ccc(F)cc2)n1CC[C@@H]1C[C@@H](O)CC(=O)O1    61.1 ng·h/mL

====

method.notes: Safety and tolerability: treatment-emergent adverse events by intervention
Assay type: in vivo, human
test.context: TEAE; intervention arm = label; P-CAB arms co-administered with atorvastatin 40 mg, 7 days
metric: Pyuria: percentage of subjects (%)

>>> print(df.to_string())
                                   compound                          metric  value_reported
0  CNCc1cc(-c2ccccc2F)n(S(=O)(=O)c2cccnc2)c1  Pyuria: percentage of subjects             6.9
1  CC(C)c1c(C(=O)Nc2ccccc2)c(-c2ccccc2)c(-c2ccc(F)cc2)n1CC[C@@H](O)C[C@@H](O)CC(=O)O [Reference 2, atorvastatin]  Pyuria: percentage of subjects             3.6
2  CC(C)c1c(C(=O)Nc2ccccc2)c(-c2ccccc2)c(-c2ccc(F)cc2)n1CC[C@@H](O)C[C@@H](O)CC(=O)O [Reference 1, atorvastatin]  Pyuria: percentage of subjects             3.2
3  Cc1nc2cc(C(=O)N(C)C)cc(O[C@H]3CCOc4cc(F)cc(F)c43)c2[nH]1  Pyuria: percentage of subjects             3.3

====

method.notes: Safety and tolerability: treatment-emergent adverse events by intervention
Format: in vivo, human
test.context: TEAE; intervention arm = label; P-CAB arms co-administered with atorvastatin 40 mg, 7 days
metric: Blood bilirubin increased: number of events

In [3]: df
Out[3]:
                                   compound  value_reported
0  CNCc1cc(-c2ccccc2F)n(S(=O)(=O)c2cccnc2)c1               1
1  Cc1nc2cc(C(=O)N(C)C)cc(O[C@H]3CCOc4cc(F)cc(F)c43)c2[nH]1               2
2  CC(C)c1c(C(=O)Nc2ccccc2)c(-c2ccccc2)c(-c2ccc(F)cc2)n1CC[C@@H](O)C[C@@H](O)CC(=O)O [Reference 1, atorvastatin]               1
3  CC(C)c1c(C(=O)Nc2ccccc2)c(-c2ccccc2)c(-c2ccc(F)cc2)n1CC[C@@H](O)C[C@@H](O)CC(=O)O [Reference 2, atorvastatin]               2
